Target: human CB1 receptor (Homo sapiens)
Sequence (P21554 whole entry): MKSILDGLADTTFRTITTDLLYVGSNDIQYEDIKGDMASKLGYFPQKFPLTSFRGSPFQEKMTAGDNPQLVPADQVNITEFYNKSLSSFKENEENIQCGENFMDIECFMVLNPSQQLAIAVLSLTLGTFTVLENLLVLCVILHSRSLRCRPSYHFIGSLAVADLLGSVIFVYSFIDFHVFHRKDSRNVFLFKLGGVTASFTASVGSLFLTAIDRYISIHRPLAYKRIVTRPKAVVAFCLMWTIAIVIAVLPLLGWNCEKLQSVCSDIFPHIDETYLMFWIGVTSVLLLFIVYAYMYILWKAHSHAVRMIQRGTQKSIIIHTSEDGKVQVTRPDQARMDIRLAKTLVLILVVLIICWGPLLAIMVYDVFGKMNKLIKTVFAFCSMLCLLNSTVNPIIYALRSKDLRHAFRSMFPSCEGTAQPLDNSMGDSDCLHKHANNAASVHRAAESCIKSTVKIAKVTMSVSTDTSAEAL
RECORDED ENDPOINT: pKi
Give bare numbers, as −log10 of the molar value.

Req: For the compound CCCCCCCc1cc(O)c2c(c1)OC(C)(C)[C@@H]1CCC(C)=C[C@@H]21 [(-)-trans-Δ^9-THCP] , report pKi.
Resp: 8.92
